Where these numbers come from: patent US7977120B2

Would you mind telling me the reported Ka, Butylamine of each entry?
Assay: Fluorescence titration of quinolone sensors with butylamine
Format: binding
Details: Table 3; 1:1 methanol-buffer; error ±20%, duplicate titrations
Write it as a number; the unit M⁻¹ goes unstated.

Request the reported Ka, Butylamine associated with CCSc1c(C=O)c(=O)n(Cc2ccccc2)c2cc(N(C)C)ccc12
76

Request the reported Ka, Butylamine associated with CN(C)c1ccc2c(Sc3ccccc3Sc3c(C=O)c(=O)n(Cc4ccccc4)c4cc(N(C)C)ccc34)c(C=O)c(=O)n(Cc3ccccc3)c2c1
30

Request the reported Ka, Butylamine associated with CN(C)c1ccc2c(SCCCCCSc3c(C=O)c(=O)n(Cc4ccccc4)c4cc(N(C)C)ccc34)c(C=O)c(=O)n(Cc3ccccc3)c2c1
43

Request the reported Ka, Butylamine associated with CN(C)c1ccc2c(SCCCSc3c(C=O)c(=O)n(Cc4ccccc4)c4cc(N(C)C)ccc34)c(C=O)c(=O)n(Cc3ccccc3)c2c1
31

Request the reported Ka, Butylamine associated with CN(C)c1ccc2c(Sc3cccc(Sc4c(C=O)c(=O)n(Cc5ccccc5)c5cc(N(C)C)ccc45)c3)c(C=O)c(=O)n(Cc3ccccc3)c2c1
72

----------
Assay: UV-vis and fluorescence titration of quinolone sensors with diaminopropane
Format: binding
Settings: Table 3; 1:1 methanol-buffer; excitation 495 nm
Would you mind telling me the reported Ka, Diaminopropane of each entry?

Request the reported Ka, Diaminopropane associated with CN(C)c1ccc2c(SCCCCCSc3c(C=O)c(=O)n(Cc4ccccc4)c4cc(N(C)C)ccc34)c(C=O)c(=O)n(Cc3ccccc3)c2c1 [Sensor IIIg]
6700 M⁻¹

Request the reported Ka, Diaminopropane associated with CN(C)c1ccc2c(Sc3cccc(Sc4c(C=O)c(=O)n(Cc5ccccc5)c5cc(N(C)C)ccc45)c3)c(C=O)c(=O)n(Cc3ccccc3)c2c1 [Sensor IIId, meta-Benzenedithiol Dimer]
3400 M⁻¹

Request the reported Ka, Diaminopropane associated with CN(C)c1ccc2c(Sc3ccccc3Sc3c(C=O)c(=O)n(Cc4ccccc4)c4cc(N(C)C)ccc34)c(C=O)c(=O)n(Cc3ccccc3)c2c1 [Sensor IIIe]
350 M⁻¹

Request the reported Ka, Diaminopropane associated with CN(C)c1ccc2c(SCCCSc3c(C=O)c(=O)n(Cc4ccccc4)c4cc(N(C)C)ccc34)c(C=O)c(=O)n(Cc3ccccc3)c2c1 [Sensor IIIf]
2100 M⁻¹

----------
Assay: Titration of Sensor Ia with various analytes (UV-vis and fluorescence)
Type: binding
Settings: fluorescence intensity at saturation from theoretical fit; λex = 484 nm
Result type: Isat/I0 (λex = 484 nm)
Lab note: jot down the number only; don't add units.

Request the reported Isat/I0 (λex = 484 nm) associated with NCCc1ccc(O)cc1
8.0

Request the reported Isat/I0 (λex = 484 nm) associated with NCCc1ccc(O)c(O)c1
0.60

Request the reported Isat/I0 (λex = 484 nm) associated with NCCCCC(N)C(=O)O (stereo not shown)
8.0

Request the reported Isat/I0 (λex = 484 nm) associated with NC1C(O)OC(CO)C(O)C1O (stereo not shown)
5.9

Request the reported Isat/I0 (λex = 484 nm) associated with NCC(O)c1ccc(O)c(O)c1 (stereo not shown) [norepinephrine]
0.46

Request the reported Isat/I0 (λex = 484 nm) associated with NC(CCC(=O)O)C(=O)O (stereo not shown)
7.0

Request the reported Isat/I0 (λex = 484 nm) associated with CNCC(O)c1ccc(O)c(O)c1 (stereo not shown) [epinephrine]
0.76
